Items are presented alongside their recorded % Retained 65° C..
system_tested: T1, TRCW5 antigen (CD3δε-Fc-Avi) (biotinylated (site not stated))
T1 construct: also called recombinant CD3
assay_procedure: ELISA after heat
Express your answer in %, writing the number without its unit.

Examples from the recorded data:
binder	scale_unit	% Retained 65° C.
CD3B2026 (scFv) scFv: QVQLVQSGAEVKKPGSSVKVSCKASGYTFTRSTMHWVKQAPGQGLEWIGYINPSSAYTNYNQKFQGRVTLTADKSTSTAYMELSSLRSEDTAVYYCASPQVHYDYNGFPYWGQGTLVTVSSGGSEGKSSGSGSESKSTGGSEIVLTQSPATLSASPGERVTLSCSASSSVSYMNWYQQKPGTAPRRWIYDSSKLASGVPARFSGSGSGRDYTLTISSLEPEDFAVYYCQQWSRNPPTFGGGTKVEIK	%	29
CD3B2070 (scFv) scFv: QVQLVQSGAEVKKPGSSVKVSCKASGYTFTRSTMHWVRQAPGQGLEWMGYINPSSAYTNYNQKFQGRVTLTADKSTSTAYMELSSLRSEDTAVYYCASPQVHYDYNGFPYWGQGTLVTVSSGGSEGKSSGSGSESKSTGGSEIVLTQSPATLSASPGERVTLSCSASSSVSYMNWYQQKPGTSPRRLIYDSSKLASGVPARFSGSGSGRDYTLTISSLEPEDFAVYYCQQWSRNPPTFGGGTKVEIK	%	6
CD3B2055 (scFv) scFv: QVQLVQSGAEVKKPGSSVKVSCKASGYTFTRSTMHWVRQAPGQGLEWIGYINPSSAYTNYNQKFQGRVTLTADKSTSTAYMELSSLRSEDTAVYYCASPQVHYDYNGFPYWGQGTLVTVSSGGSEGKSSGSGSESKSTGGSEIVLTQSPATLSASPGERVTLSCSASSSVSYMNWYQQKPGTSPRRWIYDSSKLASGVPARFSGSGSGRDYTLTISSLEPEDFAVYYCQQWSRNPPTFGGGTKVEIK	%	11
CD3B2072 (scFv) scFv: QVQLVQSGAEVKKPGSSVKVSCKASGYTFTRSTMHWVRQAPGQGLEWMGYINPSSAYTNYNQKFQGRVTLTADKSTSTAYMELSSLRSEDTAVYYCASPQVHYDYNGFPYWGQGTLVTVSSGGSEGKSSGSGSESKSTGGSEIVLTQSPATLSASPGERVTLSCSASSSVSYMNWYQQKPGQSPRRWIYDSSKLASGVPARFSGSGSGRDYTLTISSLEPEDFAVYYCQQWSRNPPTFGGGTKVEIK	%	17
CD3B2049 (scFv) scFv: QVQLVQSGAEVKKPGSSVKVSCKASGYTFTRSTMHWVKQAPGQGLEWMGYINPSSAYTNYNQKFQGRVTLTADKSTSTAYMELSSLRSEDTAVYYCASPQVHYDYNGFPYWGQGTLVTVSSGGSEGKSSGSGSESKSTGGSEIVLTQSPATLSASPGERVTLSCSASSSVSYMNWYQQKPGTSPRRWIYDSSKLASGVPARFSGSGSGRDYTLTISSLEPEDFAVYYCQQWSRNPPTFGGGTKVEIK	%	29

CD3B2080 (scFv) scFv: QVQLVQSGAEVKKPGSSVKVSCKASGYTFTRSTMHWVRQAPGQGLEWIGYINPSSAYTNYAQKFQGRVTLTADKSTSTAYMELSSLRSEDTAVYYCASPQVHYDYNGFPYWGQGTLVTVSSGGSEGKSSGSGSESKSTGGSEIVLTQSPATLSASPGERVTLSCSASSSVSYMNWYQQKPGQSPRRWIYDSSKLASGVPARFSGSGSGRDYTLTISSLEPEDFAVYYCQQWSRNPPTFGGGTKVEIK has a reported % Retained 65° C. of 17

CD3B2037 (scFv) scFv: QVQLVQSGAEVKKPGSSVKVSCKASGYTFTRSTMHWVKQAPGQGLEWMGYINPSSAYTNYAQKFQGRVTLTADKSTSTAYMELSSLRSEDTAVYYCASPQVHYDYNGFPYWGQGTLVTVSSGGSEGKSSGSGSESKSTGGSEIVLTQSPATLSASPGERVTLSCSASSSVSYMNWYQQKPGTSPRRLIYDSSKLASGVPARFSGSGSGRDYTLTISSLEPEDFAVYYCQQWSRNPPTFGGGTKVEIK has a reported % Retained 65° C. of 23

CD3B1130 (scFv, also called IGHV1-69*02-IGHJ1-01 / IGKV3-11*02-IGKJ4-01 grafted construct, HL) scFv: QVQLVQSGAEVKKPGSSVKVSCKASGYTFTRSTMHWVRQAPGQGLEWMGYINPSSAYTNYNQKFQGRVTLTADKSTSTAYMELSSLRSEDTAVYYCARPQVHYDYNGFPYWGQGTLVTVSSGGSEGKSSGSGSESKSTGGSEIVLTQSPATLSLSPGERATLSCSASSSVSYMNWYQQKPGTSPRRLIYDSSKLASGIPARFSGSGSGRDYTLTISSLEPEDFAVYYCQQWSRNPPTFGGGTKVEIK has a reported % Retained 65° C. of 1

CD3B2060 (scFv) scFv: QVQLVQSGAEVKKPGSSVKVSCKASGYTFTRSTMHWVKQAPGQGLEWIGYINPSSAYTNYAQKFQGRVTLTADKSTSTAYMELSSLRSEDTAVYYCASPQVHYDYNGFPYWGQGTLVTVSSGGSEGKSSGSGSESKSTGGSEIVLTQSPATLSASPGERVTLSCSASSSVSYMNWYQQKPGQAPRRLIYDSSKLASGVPARFSGSGSGRDYTLTISSLEPEDFAVYYCQQWSRNPPTFGGGTKVEIK has a reported % Retained 65° C. of 21

CD3B2089 (scFv) scFv: QVQLVQSGAEVKKPGSSVKVSCKASGYTFTRSTMHWVRQAPGQGLEWMGYINPSSAYTNYAQKFQGRVTLTADKSTSTAYMELSSLRSEDTAVYYCASPQVHYDYNGFPYWGQGTLVTVSSGGSEGKSSGSGSESKSTGGSEIVLTQSPATLSASPGERVTLSCSASSSVSYMNWYQQKPGQAPRRWIYDSSKLASGVPARFSGSGSGRDYTLTISSLEPEDFAVYYCQQWSRNPPTFGGGTKVEIK has a reported % Retained 65° C. of 41
